# Run Description: chemical genetic growth profiling, strain panel (AID 1159580);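 note: tested at 20 µM; growth read once vehicle control cultures reached saturation at 30 °C; 1 = growth at the plate median or of vehicle wells; lower values mean less growth of the strain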
# Test Parameters: S. cerevisiae deletion strains, growth OD, locus YLL026W, active compounds read low
In all, about 5,500 compounds went through this assay and about 2,000 (36%) were called active. Roughly 18% stayed inconclusive and do not appear here. Some of the results follow.
Observation Type: normalized growth

NCCc1c[nH]c2ccccc12 : 0.941 (inactive)
c1ccc2c(Cc3c[nH]c4ccccc34)c[nH]c2c1 : 0.469 (active)
CNS(=O)(=O)Cc1ccc2[nH]cc(CCN(C)C)c2c1 : 1.01 (inactive)
CN(C)CCc1c[nH]c2ccc(C[C@H]3COC(=O)N3)cc12 : 1.01 (inactive)
CN(C)CCc1c[nH]c2ccc(CS(=O)(=O)N3CCCC3)cc12 : 0.98 (inactive)
CC(=O)O[C@H]1CC[C@]2(C)C3CC(=O)[C@]4(C)C(C(C)=O)=CCC4C3CC[C@H]2C1 (stereo not given in full) : 0.994 (inactive)
CNC(Cc1c[nH]c2ccccc12)C(=O)O (stereo not given) : 0.974 (inactive)
CC1(C)C(=O)[C@@H]2C[C@@]3(O)C4=CC(=O)O[C@@H](c5ccoc5)[C@]4(C)CCC3[C@@](C)(C2=O)[C@H]1CC(=O)O (stereo not given in full) : 1.01 (inactive)
CC(=O)O[C@H]1CC[C@]2(C)C3CC[C@@]4(C)C(CC5O[C@@]6(CCC(C)CO6)[C@@H](C)C54)C3CC[C@@H]2C1 (stereo not given in full) : 1.02 (inactive)

Attention now turns to another entry.
INPUT: Suppose we examine the compound `CN1CCN(CCC=C2c3ccccc3Sc3ccc(S(=O)(=O)N(C)C)cc32)CC1` ; what normalized growth value has been reported?
OUTPUT: 1 (inactive)

###

# Run Description: chemical genetic growth profiling, strain panel (AID 1159580)
# Test Parameters: S. cerevisiae deletion strains, growth OD, locus YNL071W, strain lat1
Out of some 5,500 compounds screened, about 2,000 (36%) were called active. About 18% were inconclusive and are not listed. No stated cut-off is given here; in the data, active means normalized growth mostly below about 0.91 (no sharp cut-off); inconclusive means no clear call, values can overlap the other calls; inactive means mostly above about 0.92. The list shows a part of the results.
Field 'call' accepts active, inactive

Illustrative cases are given below, each with its answer.
NC[C@H]1O[C@H](O[C@H]2[C@H](O)[C@@H](O[C@H]3O[C@H](CO)[C@@H](O)[C@H](N)[C@H]3O)[C@H](N)C[C@@H]2N)[C@H](N)C[C@@H]1O : inactive
CN[C@@H]1[C@@H](O[C@H]2O[C@H](CO)[C@@H](N)[C@H](O)[C@H]2O)O[C@H]2C[C@@H](N)[C@H](O[C@H]3[C@H](O)[C@@H](O)[C@H](N)C[C@@H]3N)O[C@@H]2[C@@H]1O : inactive
CCOC([O-])=Nc1c[n+](N2CCOCC2)no1 : inactive
CC(=O)NO : inactive
O=C(OC[C@H]1O[C@H](OC(=O)c2cc(O)c(O)c(OC(=O)c3cc(O)c(O)c(O)c3)c2)[C@H](OC(=O)c2cc(O)c(O)c(OC(=O)c3cc(O)c(O)c(O)c3)c2)[C@@H](OC(=O)c2cc(O)c(O)c(OC(=O)c3cc(O)c(O)c(O)c3)c2)[C@@H]1OC(=O)c1cc(O)c(O)c(OC(=O)c2cc(O)c(O)c(O)c2)c1)c1cc(O)c(O)c(OC(=O)c2cc(O)c(O)c(O)c2)c1 : active
NCCc1cc(O)c(O)cc1O : inactive
C1CCC(C(CC2CCCCN2)C2CCCCC2)CC1 (configuration not stated) : inactive
CC(=O)OC[C@H]1O[C@@H](Oc2cc(OC(C)=O)c3c(=O)cc(-c4ccc(OC(C)=O)cc4)oc3c2)[C@H](OC(C)=O)[C@@H](OC(C)=O)[C@@H]1OC(C)=O : inactive
NC(=O)NO : inactive
COC(=O)[C@]1(C)CC[C@]2(C)CC[C@]3(C)C4=CC=C5C(=CC(=O)C(O)=C5C)[C@]4(C)CC[C@@]3(C)[C@@H]2C1 : active

INPUT: Could you check what this test reported for CC(=O)CC1CCCCN1 (configuration not stated) ?
OUTPUT: inactive

INPUT: GET /call?item= `CC1=C(O)C(=O)C=C2C1=CC=C1[C@@]2(C)CC[C@@]2(C)[C@@H]3C[C@](C)(C(=O)O)CC[C@]3(C)CC[C@]12C` returns the recorded outcome of this test.
OUTPUT: active

INPUT: Hey, what did the test say about `NCCNCCNCCN` ?
OUTPUT: inactive

INPUT: Entry `CC(=O)Oc1ccccc1C(=O)O` : call = ?
OUTPUT: inactive

INPUT: So what was the verdict on `CN(C)C(=N)N=C(N)N` in this test?
OUTPUT: inactive

INPUT: Which outcome was assigned to `COc1cc(-c2coc3cc(O[C@@H]4O[C@H](CO)[C@@H](O)[C@H](O)[C@H]4O)c(OC)c(O)c3c2=O)cc(O)c1OC` in this test?
OUTPUT: inactive

INPUT: Give the logged outcome of this assay for the following compound: `NC(=O)N1c2ccccc2C=Cc2ccccc21`
OUTPUT: inactive

###

# Run Description: chemical genetic growth profiling, strain panel (AID 1159580);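 note: tested at 20 µM; growth read once vehicle control cultures reached saturation at 30 °C; 1 = growth at the plate median or of vehicle wells; lower values mean less growth of the strain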
# Test Parameters: S. cerevisiae deletion strains, growth OD, locus YLR357W, strain rsc2, active compounds read low
Screen size: about 5,500 compounds; about 2,000 (36%) were called active. Not shown: some 18% with an inconclusive outcome. The list shows a part of the results. *1 amine or outer side, *2 acyl side, *3 side chain or, on linkers, in order; H or OH if unused. Where a SMILES comes first, the peptide text is derived from it. Bridges are numbered along the chain shown (N, C = ends). [ ]: non-standard residue; d: D form. The star is where a group is joined. ξ: configuration not given here. ΔAla(E,3-NHCONH2) = NC(=O)N/C=C(/N)C(=O)O; X2 = NC1=NCCC(C(N[*:1])C(=O)[*:2])N1; ξβ3hOrn = NCCCC(N)CC(=O)*; Dap = NC[CH](N)C(=O)O
Observation Type: normalized growth
Lab note: record just the number, no unit beside it.

Here are 3 molecules together with their reported answers.
NCCCC(N)CC(=O)NCC1NC(=O)C(CO)NC(=O)C(N)CNC(=O)C(C2CCN=C(N)N2)NC(=O)/C(=C\NC(N)=O)NC1=O (stereo not drawn) (H-[Dap]S[Dap](ξβ3hOrn)[ΔAla(E,3-NHCONH2)][X2]; lactam 1-C; configuration not given here) : 1
CN1C(=O)CCS(=O)(=O)C1c1ccc(Cl)cc1 (centres undefined) : 0.954
CO[C@@]1(NC(=O)Cc2cccs2)C(=O)N2C(C(=O)O)=C(COC(N)=O)CS[C@@H]21 : 0.915

Now consider a different molecule.
INPUT: Could you share which normalized growth value was measured for `COc1ccc2c(c1)[C@]13CCCC[C@H]1[C@H](C2)N(C)CC3` ?
OUTPUT: 0.958

###

Measured normalized growth, listed per entry for reference.
# Run Description: chemical genetic growth profiling, strain panel (AID 1159580);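 note: tested at 20 µM; growth read once vehicle control cultures reached saturation at 30 °C; 1 = growth at the plate median or of vehicle wells; lower values mean less growth of the strain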
# Test Parameters: S. cerevisiae deletion strains, growth OD, locus YDL101C, strain DUN1, active compounds read low
Screen size: about 5,500 compounds; about 2,000 (36%) were called active. Inconclusive results (about 18%) are left out. The list shows a part of the results.

Previously resolved entries follow.
CC(C)S(=O)(=O)c1csc(C(N)=O)c1Cl : 0.989 (inactive)
CC(N)C(O)c1ccc(O)c(O)c1 (centres undefined) : 0.998 (inactive)
CCC1(CC)C(=O)C=CNC1=O : 1 (inactive)

Could you now consider this next compound?
INPUT: Can you look up the measured normalized growth of `O=C(O)c1cc([N+](=O)[O-])ccc1NCCCc1ccccc1` for me?
OUTPUT: 0.984 (inactive)

###

# Run Description: chemical genetic growth profiling, strain panel (AID 1159580);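 note: tested at 20 µM; growth read once vehicle control cultures reached saturation at 30 °C; 1 = growth at the plate median or of vehicle wells; lower values mean less growth of the strain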
# Test Parameters: S. cerevisiae deletion strains, growth OD, locus YML070W, strain DAK1
The campaign covered roughly 5,500 compounds. About 2,000 (36%) were called active. Roughly 18% stayed inconclusive and do not appear here. Rule as the data show it: active = normalized growth mostly below about 0.91 (no sharp cut-off); inconclusive = no clear call, values can overlap the other calls; inactive = mostly above about 0.92. The list shows a part of the results.
// allowed return values: active, inactive

O=c1c(-c2ccccc2)c(O)c2cccc3c4c(n1c23)CCCC4 : active
S=C(Nc1ccc(Cl)cc1)Nc1ccc(Cl)cc1 : inactive
O=C(Nc1cccnc1)c1cc2c(s1)-c1ccccc1CC2 : active
Cn1nc(-c2ccccc2)c(O)c(N=Nc2ccccc2)c1=O : inactive
CS/C(Nc1cccc(C(F)(F)F)c1)=C(/C#N)S(=O)(=O)c1ccc(Cl)cc1 : inactive

INPUT: Tell me the recorded outcome of this test for OC(CSc1ccccc1)CN1CCN(c2nc(-c3ccccc3)ns2)CC1 (stereo not drawn) .
OUTPUT: inactive

INPUT: Please share the test call associated with `O=c1c(-c2ccccc2)c(O)c2cccc3c4ccccc4n1c23` .
OUTPUT: active

INPUT: What is the recorded call for this compound in the test? `N#C/C(=N/Nc1cccc(C(F)(F)F)c1)C(=O)c1csc(-c2cccnc2)n1`
OUTPUT: active

INPUT: For `Cc1ccc2nc(-c3ccc([N+](=O)[O-])o3)oc(=O)c2c1` , which call appears in the assay record?
OUTPUT: active

INPUT: Kindly provide the recorded test outcome for the following compound: `FC(F)(F)c1cc(-c2ccc(Cl)cc2)n[nH]1`
OUTPUT: inactive

INPUT: What did this assay record as the result for `CSc1nnc(COc2ccc(C)c3c2CCC3)n1-c1ccccc1` ?
OUTPUT: inactive

INPUT: Test call for this compound, please: `Clc1ccc(N/N=C\c2sccc2Oc2ccccc2)cc1`
OUTPUT: active

INPUT: Lab log entry: `CC(C)(C)C(=O)c1sc2sc(C(=O)C(C)(C)C)c(N)c2c1N` — outcome as called in the assay?
OUTPUT: inactive
